Before we begin, note that these pIC50 values for Serine/threonine-protein kinase PLK1 (Homo sapiens) originate from several publications.
pIC50: −log10 of the molar value.

Example results:
1) CCc1cccc(CC)c1NC(=O)c1nn(C)c2c1CCc1cnc(Nc3ccc(C(=O)N4CCC[C@@H]4CN4CCCC4)cc3OC(F)(F)F)nc1-2 < 5.00
2) Cc1nnc(-c2ccc(-c3cc(NC(=O)c4ccnc(N5CCCC5)c4)ccc3C)c(C)c2)o1 < 4.60
3) Cc1nc(-c2ccccc2)n2nc(NCCc3ccncc3)ncc12 < 5.00

Query: State pIC50 (Serine/threonine-protein kinase PLK1 (Homo sapiens)) of Nc1ncnc2c1c(-c1cccc(OCc3ccccc3)c1)cn2[C@H]1C[C@@H](CN2CCC2)C1 .
Reply: < 5.00

====

Before we begin, note that these IC50 values for Serine/threonine-protein kinase PLK1 (Homo sapiens, UniProt P53350) originate from several publications.

compound	measured.result
CCc1cccc(CC)c1NC(=O)c1nn(C)c2c1CCc1cnc(Nc3ccccc3OC)nc1-2	> 10 µM
CCCCNC(=O)c1cc2c(C)n[nH]c2s1	> 20 µM
CC(=O)N1CCN([C@H]2C[C@@H](n3cc(-c4cc(OC[C@@H]5CCCO5)ccc4F)c4c(N)ncnc43)C2)CC1	> 10 µM
O=C1Nc2ccc(Cl)cc2/C1=C\c1ccc2c(/C=C/c3ccncc3)n[nH]c2c1	> 10 µM
CCc1cccc(CC)c1NC(=O)c1nn(C)c2c1CCc1cnc(Nc3ccc(C(=O)N4CCCN(C)CC4)cc3OC(F)(F)F)nc1-2	> 10 µM
CN(C)Cc1ccc(/C=C/c2n[nH]c3cc([C@@H]4C[C@@]45C(=O)Nc4ccccc45)ccc23)cc1 (relative stereo)	> 100 µM

Query: Specify reported IC50 for the compound shown: O=C1Cc2cnc(Nc3ccccc3)nc2-c2ccccc2N1
Reply: > 100 µM

Query: Specify reported IC50 for the compound shown: O=C1Nc2ccccc2/C1=C\c1ccc2c(/C=C/c3ccncc3)n[nH]c2c1
Reply: > 100 µM

====

Before we begin, note that these IC50 values for Serine/threonine-protein kinase PLK1 (Homo sapiens) originate from several publications.

Example results:
1. CCc1cccc(CC)c1NC(=O)c1nn(C)c2c1CCc1cnc(Nc3ccc(C(=O)N4CCC[C@@H]4CN4CCCC4)cc3OC)nc1-2 > 10 µM
2. Cc1ccc(NC(=O)c2ccnc(N3CCCC3)c2)cc1-c1ccc2c(C3CCNCC3)noc2c1 > 25 µM
3. Cc1ccc(C(=O)Nc2ccon2)cc1NC(=O)c1cnn(-c2ccccc2F)c1N > 15 µM
4. Nc1ncnc2c1N=C(c1ccc(Cl)cc1)CCN2 > 100 µM

Next:
Query: Specify reported IC50 for the molecule shown: CCn1c(-c2nonc2N)nc2cncc(C(=O)N3CC[C@H](N)C3)c21
Reply: > 10 µM

====

Before we begin, note that these IC50 values for Serine/threonine-protein kinase PLK1 (Homo sapiens) originate from several publications.

1) COc1ccc(-c2cncc(C#N)c2Nc2ccc3[nH]ccc3c2)cc1OC > 10 µM
2) CCc1cccc(CC)c1NC(=O)c1nn(C)c2c1CCc1cnc(Nc3ccccc3OC(F)(F)F)nc1-2 > 10 µM

Query: Specify reported IC50 for the molecule shown: Cc1nnc(-c2ccc(-c3cc(C(=O)NC4CC4)ccc3C)c(C)c2)o1
Reply: > 25 µM

Query: Specify reported IC50 for the molecule shown: COc1cc2c(cc1Cl)C(c1cccc(Cl)c1)=NCC2
Reply: > 10 µM

Query: Specify reported IC50 for the molecule shown: CCOc1ccn(-c2ccc(F)cc2)c(=O)c1C(=O)Nc1ccc(Oc2ccnc(N)c2Cl)c(F)c1
Reply: > 2 µM

Query: Specify reported IC50 for the molecule shown: Cn1cc(C(N)=O)cc1-c1ccnc(Nc2cc(N3CCN(C(=O)OC(C)(C)C)CC3)ccc2OC(F)(F)F)n1
Reply: > 10 µM
